Tested on: human cervical carcinoma cells Hela
protocol.text: MTS anti-proliferative assay, Hela
Assay type: cell-based
condition: 48 h, mean ± SD
Method: The MTS (3-(4,5-dimethylthiazole-2-yl)-5-(3-carboxymethoxyphenyl)-2-(4-sulfophenyl)-2H- tetrazolium) (Promega, Madison, WI, USA) assay was used to determine the IC50 value for all compounds, according to [26]. […] Colorimetric measurements were recorded at 492 nm. Background absorbance was corrected using triplicate sets of wells, and cells were incubated at 37 °C for a minimum of 2 h. Colorimetric measurements were recorded at 492 nm. […]
measured.attribute: pIC50
Answers are plain numbers, as −log10 of the molar value.

What value of pIC50 has been reported for the following compound? N.N.[Cl][Pt][Cl] [cisplatin]
5.23

This collection of values is drawn from paper PMC6862253.
